# EXPERIMENT DESCRIPTION: chemical genetic growth profiling, strain panel (AID 1159580);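 also: tested at 20 µM; growth read once vehicle control cultures reached saturation at 30 °C; 1 = growth at the plate median or of vehicle wells; lower values mean less growth of the strain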
# ASSAY SETUP: S. cerevisiae deletion strains, growth OD, locus YBR009C, strain hhf1, hits give low values
About 2,000 (36%) of roughly 5,500 compounds were called active. Roughly 18% stayed inconclusive and do not appear here. Some of the results follow.
MEASUREMENT NAME: normalized growth
I only need the number, thanks.

COMPOUND: CC(=O)OCC(=O)[C@@]1(O)CCC2C3CC[C@@H]4C[C@H](O)CC[C@]4(C)C3C(=O)C[C@@]21C (some centres not stated)
normalized growth: 1.03
//
COMPOUND: CC(=O)OCC(=O)[C@H]1CCC2C3CC=C4C[C@@H](O)CC[C@]4(C)C3CC[C@@]21C (some centres not stated)
normalized growth: 0.819
//
COMPOUND: ClC(Cl)=C(c1ccc(Cl)cc1)c1ccc(Cl)cc1
normalized growth: 0.987

Asked: Reported normalized growth for CC(=O)[C@H]1CCC2C3CC=C4C[C@@H](OC(=O)CCC(=O)O)CC[C@]4(C)C3CC[C@@]21C (some centres not stated) : what is it?
Given back: 0.899

Asked: Same again, this time with COc1cc([C@@H]2c3cc4c(cc3C(O[C@@H]3O[C@@H]5CO[C@@H](c6cccs6)OC5[C@H](O)[C@H]3O)C3COC(=O)[C@@H]32)OCO4)cc(OC)c1O (some centres not stated)
Given back: 0.955

Asked: Now give it for CC(=O)Nc1ccc(O)cc1 too.
Given back: 1.01

Asked: Queued: O=c1c(-c2ccc(O)cc2)coc2cc(O)cc(O)c12
Given back: 1.01
